From: patent US8293731B2

Tested on: HIV
ASSAY INFO: Assay for inhibition of HIV replication (spread assay): acute HIV infection of T-lymphoid cells
Assay type: cell-based
CONDITION SET: Human immunodeficiency virus 1, 'less than about'
Procedure: Assays for the inhibition of acute HIV infection of T-lymphoid cells were conducted in accordance with Vacca, J. P. et al., Proc. Natl. Acad. Set USA 1994, 91: 4096. […] For example, the compounds of Examples 1 to 64 were tested in this assay and found to have IC95 values of less than about 10 micromolar.
Catalogue of IC95 values

Observe how each entry below is paired with its result.
C=C1CCCN(C)C(=O)c2c3c(c(O)c(=O)n21)C(=O)N(Cc1ccc(F)c(Cl)c1)CC3 [Example 50] | < 10 µM
CC1CCCN(CCO)C(=O)c2c3c(c(O)c(=O)n21)C(=O)N(Cc1ccc(F)c(Cl)c1)CC3 (stereo not shown) [Example 30] | < 10 µM
CC(=O)NCCN1CCCCn2c(c3c(c(O)c2=O)C(=O)N(Cc2ccc(F)c(Cl)c2)CC3)C1=O [Example 20] | < 10 µM
CC1CCCN(CCn2cccn2)C(=O)c2c3c(c(O)c(=O)n21)C(=O)N(Cc1ccc(F)c(Cl)c1)CC3 (stereo not shown) [Example 35] | < 10 µM
CN1CC(O)C(C)(C)Cn2c(c3c(c(O)c2=O)C(=O)N(Cc2ccc(F)c(Cl)c2)CC3)C1=O (racemic) [Example 40] | < 10 µM
CC1CCCN(CCN2CCCCC2)C(=O)c2c3c(c(O)c(=O)n21)C(=O)N(Cc1ccc(F)c(Cl)c1)CC3 (stereo not shown) [Example 33] | < 10 µM

Now consider the entry below.
Prompt: Return reported IC95; argument: O=C1OCCn2c1c1c(c(O)c2=O)C(=O)N(Cc2ccc(F)c(Cl)c2)CC1 [Example 7]
Completion: < 10 µM
